ED50 for assorted compounds
system: Cavia porcellus; experiment: Inhibition of PAF-induced bronchoconstriction in guinea pig after oral administration after two-hour pretreatment time; format: functional; details: read-out: ID50 (the source's name)
Your answer is read as mg/kg, so omit the unit and give the number.

Exercise: So what's the measured ED50 for this one? Cc1nnc2n1-c1ccc(C#CCN3C(=O)c4cccc5cccc(c45)C3=O)cc1C(c1ccccc1Cl)=NC2
Key: 0.6

Exercise: Query: ED50; subject: Cc1nnc2n1-c1sc(C#CCC34CCCc5cccc(c53)NC4=O)cc1C(c1ccccc1Cl)=NC2 (centres undefined)
Key: 0.3

Exercise: Give the measured ED50 of Cc1nnc2n1-c1sc(C#CCn3c(=O)ccc4ccccc43)cc1C(c1ccccc1Cl)=NC2 .
Key: 0.02

Exercise: Fill in: ED50 of Cc1nnc2n1-c1sc(C#CCN3C(=O)CCc4cc(Cl)cc(Cl)c43)cc1C(c1ccccc1Cl)=NC2 is ___
Key: 0.02

Exercise: Need ED50, item Cc1nnc2n1-c1sc(C#CCn3c4c(c5cc(Cl)ccc53)CCCC4)cc1C(c1ccccc1Cl)=NC2
Key: 0.04

Exercise: Using the record for Cc1nnc2n1-c1sc(C#CCN3CCc4ccccc4C3=O)cc1C(c1ccccc1Cl)=NC2 , report its ED50.
Key: 0.03

Exercise: So what's the measured ED50 for this one? Cc1nnc2n1-c1sc(C#CCN3C(=O)OCc4ccccc43)cc1C(c1ccccc1Cl)=NC2
Key: 0.08

Exercise: Bench note: what ED50 did Cc1nnc2n1-c1sc(C#CCOc3ccccc3)cc1C(c1ccccc1Cl)=NC2 show?
Key: 0.1

Exercise: Recorded ED50 for Cc1nnc2n1-c1sc(C#CCn3c(O)nc4ccccc43)cc1C(c1ccccc1Cl)=NC2 , please?
Key: 0.2

###

The entries below come with measured ED50 values attached.
tested on: Cavia porcellus; experiment: Inhibition of PAF-induced bronchoconstriction in guinea pig after oral administration after two-hour pretreatment time; assay type: functional; settings: read-out: ID50 (the source's name)
Write down the numeric answer in mg/kg and omit the unit.

>>> meas_value("Cc1nnc2n1-c1sc(C#CCN3C(=O)COc4cc(F)ccc43)cc1C(c1ccccc1Cl)=NC2")
0.02
>>> meas_value("Cc1nnc2n1-c1sc(C#CCn3c(=O)c4ccccc4c4ccccc4c3=O)cc1C(c1ccccc1Cl)=NC2")
0.02
>>> meas_value("Cc1nnc2n1-c1sc(C#CCn3c4ccccc4c(=O)c4ccccc43)cc1C(c1ccccc1Cl)=NC2")
0.02

Exercise: Give the measured ED50 of Cc1nnc2n1-c1sc(C#CCn3c(=O)c4ccccc4c4ccccc43)cc1C(c1ccccc1Cl)=NC2O (centres undefined) .
Key: 0.07

###

Items are presented alongside their recorded ED50.
test system: Cavia porcellus; assay: Inhibition of PAF-induced bronchoconstriction in guinea pig after oral administration after two-hour pretreatment time; type: functional; conditions: read-out: ID50 (the source's name)
Note: unit mg/kg is implicit; provide only the numeric part.

>>> meas_value("Cc1nnc2n1-c1sc(C#CCn3c(=O)c4ccccc4c(=O)c4ccccc43)cc1C(c1ccccc1Cl)=NC2")
0.03
>>> meas_value("O=c1c2ccccc2c2ccccc2n1CC#Cc1cc2c(s1)-n1c(CO)nnc1CN=C2c1ccccc1Cl")
0.3
>>> meas_value("Cc1nnc2n1-c1sc(C#CCn3cnc4ccccc43)cc1C(c1ccccc1Cl)=NC2")
0.1
>>> meas_value("Cc1nnc2n1-c1sc(C#CCn3ncc4ccccc43)cc1C(c1ccccc1Cl)=NC2")
0.02
>>> meas_value("Cc1nnc2n1-c1sc(C#CCN3C(=O)NCc4ccccc43)cc1C(c1ccccc1Cl)=NC2")
0.05
>>> meas_value("Cc1nnc2n1-c1sc(C#CCn3c4c(c5cc(Cl)ccc53)CCCCC4)cc1C(c1ccccc1Cl)=NC2")
0.3

Exercise: Suppose we examine the compound Cc1nnc2n1-c1sc(C#CCN3C(=O)COc4ccccc43)cc1C(c1ccccc1Cl)=NC2 ; what ED50 value has been reported?
Key: 0.02

Exercise: Recorded ED50 for Cc1nnc2n1-c1sc(C#CCN3C(=O)COc4ccc(Cl)cc43)cc1C(c1ccccc1Cl)=NC2 , please?
Key: 0.05

Exercise: Name the reported ED50 value associated with the compound COc1cc2c(cc1OC)C(=O)N(CC#Cc1cc3c(s1)-n1c(C)nnc1CN=C3c1ccccc1Cl)CC2
Key: 0.05
